# MEASUREMENT NOTES: Protein binding in cynomolgus monkey plasma
# Assay type: ADME, cell-free, Macaca fascicularis
# PARTICULARS: read-out: PPB (converted)
REPORTED PROPERTY: fraction unbound

**Query** Form field: reported fraction unbound of `COc1ccc(C[C@@H]2NC(=O)[C@H]([C@@H](C)O)NC(=O)[C@@H]3CCCN3C(=O)[C@@H]3Cc4cn(c5ccc(F)cc45)Cc4cn(nn4)-c4cc(cc(c4)CSCCC(=O)N[C@@H](C)C(=O)N[C@H](C)C(=O)N[C@@H](Cc4c[nH]c5ccc(F)cc45)C(=O)N3)CSCCNC(=O)[C@]3(C)CCCN3C2=O)cc1`
**Result** 0.025

* * *

# MEASUREMENT NOTES: AUC (0 to infinity) in cynomolgus monkey at 0.5 mg/kg, iv by LC-MS/MS analysis
# Assay type: ADME, organism-based, Macaca fascicularis
# Design: time infinity, route intravenous, dose 0.5 mg/kg
# PARTICULARS: in vivo
REPORTED PROPERTY: AUC(0-inf) (µM·h)
Report the value in µM·h with no unit label.

**Query** Form field: reported AUC(0-inf) of `COc1ccc(C[C@@H]2NC(=O)[C@H]([C@@H](C)O)NC(=O)[C@@H]3CCCN3C(=O)[C@@H]3Cc4cn(c5ccc(F)cc45)Cc4cn(nn4)-c4cc(cc(c4)CSCCC(=O)N[C@@H](C)C(=O)N[C@H](C)C(=O)N[C@@H](Cc4c[nH]c5ccc(F)cc45)C(=O)N3)CSCCNC(=O)[C@]3(C)CCCN3C2=O)cc1`
**Result** 0.306

* * *

Each entry below carries its recorded AUC.
# MEASUREMENT NOTES: AUC (0 to X) in C57BL/6 mouse at 1 mg/kg, iv by LC-MS/MS analysis
# Assay type: ADME, organism-based
# Parameters: dose 1 mg/kg
# PARTICULARS: in vivo
Report the value in µM·h with no unit label.

Field: example entries. Status: answers known.
1) C[C@H]1NC(=O)[C@H](CCCCN)NC(=O)CCSCc2cccc(c2)CSCCNC(=O)[C@]2(C)CCCN2C(=O)[C@H](Cc2ccc(O)cc2)NC(=O)[C@H](Cc2cnc[nH]2)NC(=O)[C@H](CC(=O)O)NC(=O)[C@H](Cc2c[nH]c3ccc(F)cc23)NC(=O)[C@H](Cc2c[nH]c3ccc(F)cc23)NC1=O; 0.491
2) CC(C)[C@H]1NC(=O)[C@H](CCCCN)NC(=O)CCSCc2cccc(c2)CSCCNC(=O)[C@]2(C)CCCN2C(=O)[C@H](Cc2ccc(O)cc2)NC(=O)[C@H](Cc2cnc[nH]2)NC(=O)[C@H](CC(=O)O)NC(=O)[C@H](Cc2c[nH]c3ccc(F)cc23)NC(=O)[C@H](Cc2c[nH]c3ccc(F)cc23)NC1=O; 2.49

**Query** Form field: reported AUC of `NCCCC[C@@H]1NC(=O)CCSCc2cccc(c2)CSC[C@@H](C(N)=O)NC(=O)[C@@H]2CCCN2C(=O)[C@H](Cc2ccc(O)cc2)NC(=O)[C@H](Cc2c[nH]cn2)NC(=O)[C@H](CC(=O)O)NC(=O)[C@H](Cc2c[nH]c3ccc(F)cc23)NC(=O)[C@H](Cc2c[nH]c3ccc(F)cc23)NC(=O)CNC1=O`
**Result** 0.241

Cited source for all entries: ChEMBL document CHEMBL4699634
